# measured_on: recombinant human PAI-1 (Homo sapiens, UniProt P05121)
# Sequence (P05121 24-402): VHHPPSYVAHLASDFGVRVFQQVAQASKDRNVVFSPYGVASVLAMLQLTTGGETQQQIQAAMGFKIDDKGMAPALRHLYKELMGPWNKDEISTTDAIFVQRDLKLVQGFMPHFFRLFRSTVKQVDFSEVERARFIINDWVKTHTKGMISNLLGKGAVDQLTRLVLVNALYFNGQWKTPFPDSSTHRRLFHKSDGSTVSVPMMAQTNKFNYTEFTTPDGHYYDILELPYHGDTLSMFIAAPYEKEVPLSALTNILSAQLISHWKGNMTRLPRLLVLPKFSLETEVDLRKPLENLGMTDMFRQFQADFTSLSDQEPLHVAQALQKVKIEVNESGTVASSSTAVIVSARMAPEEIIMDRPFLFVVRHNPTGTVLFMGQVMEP
# protocol_text: Test Example 2: Human PAI-1 Inhibitory Activity (pH 7.4 HEPES buffer, 10 minutes incubation with two-chain tPA)
# Format: biochemical
# Parameters: purchased Molecular Innovations, Inc
# test_context: read-out: Inhibition Rate of PAI-1 Activity (%)
inhibition at 0.3 µM values by entry
# value in %; strip the unit string

These recorded examples may help you get a feel for the data.
- record_smiles: "O=C(O)CCc1c(Oc2ccc(OC(F)(F)F)cc2)cccc1Oc1ccc(OC(F)(F)F)cc1"
  units_symbol: "%"
  observed_measurement: 2
- record_smiles: "Cc1cc(C)cc(Oc2cc(-c3ccc(C(C)(C)C)cc3)ccc2CCC(=O)O)c1"
  units_symbol: "%"
  observed_measurement: 14
- record_smiles: "CCCCCOc1ccc(-c2ccc(OC(F)(F)F)cc2)cc1N(CCCCc1ccccc1)CC(=O)O"
  units_symbol: "%"
  observed_measurement: 19

Now consider a different compound.
Ask: Please look up its inhibition at 0.3 µM: CC(C)(C)c1ccc(Oc2cc(-c3ccccc3OC(F)(F)F)ccc2/C=C/C(=O)O)cc1
Result: 9

====

Entries and their measured inhibition at 10 µM follow.
# measured_on: recombinant human PAI-1 (Homo sapiens)
# protocol_text: biochemical
# test_context: read-out: Inhibition Rate of PAI-1 Activity (%)
Supply the numeric figure in %, leaving out any unit text.

Would you please look over these solved cases?
- compound: "CC(C)(C)c1ccc(COc2ccc(Nc3ccc(OC(F)(F)F)cc3)cc2CCC(=O)O)cc1 [Compound 412]"
  measured_on: "recombinant human PAI-1 (Homo sapiens)"
  units_symbol: "%"
  inhibition at 10 µM: 46
- compound: "CC(C)(C)c1ccc(Oc2cc(-c3ccc(OC(F)(F)F)cc3)ccc2/C=C/C(=O)O)cc1 [Compound 79]"
  measured_on: "recombinant human PAI-1 (Homo sapiens)"
  units_symbol: "%"
  inhibition at 10 µM: 84
- compound: "CCCCCOc1ccc(N(CCCCc2ccccc2)C(=O)C(=O)O)cc1-c1ccc(OC(F)(F)F)cc1 [Compound 244]"
  measured_on: "recombinant human PAI-1 (Homo sapiens)"
  units_symbol: "%"
  inhibition at 10 µM: 91
- compound: "CC(C)(C)c1ccc(CN(C(=O)C(=O)O)c2ccc(C(F)(F)F)cc2-c2ccc(OC(F)(F)F)cc2)cc1 [Compound 169]"
  measured_on: "recombinant human PAI-1 (Homo sapiens)"
  units_symbol: "%"
  inhibition at 10 µM: 91
- compound: "CC(C)(C)c1ccc(CN(C(=O)C(=O)O)c2ccc(-c3ccc(C(C)(C)C)cc3)cc2)cc1 [Compound 163]"
  measured_on: "recombinant human PAI-1 (Homo sapiens)"
  units_symbol: "%"
  inhibition at 10 µM: 84
- compound: "O=C(O)C(=O)N(CCCCc1ccccc1)c1ccc(N2CCOCC2)c(-c2ccc(OC(F)(F)F)cc2)c1 [Compound 243]"
  measured_on: "recombinant human PAI-1 (Homo sapiens)"
  units_symbol: "%"
  inhibition at 10 µM: 64
- compound: "CC(C)(C)c1ccc(N(C(=O)C(=O)O)c2cccc(Oc3ccc(OC(F)(F)F)cc3)c2)cc1 [Compound 170]"
  measured_on: "recombinant human PAI-1 (Homo sapiens)"
  units_symbol: "%"
  inhibition at 10 µM: 73
- compound: "CC(C)(C)c1ccc(Oc2ccc(Oc3ccc(OC(F)(F)F)cc3)cc2CCC(=O)O)cc1 [Compound 100]"
  measured_on: "recombinant human PAI-1 (Homo sapiens)"
  units_symbol: "%"
  inhibition at 10 µM: 91
- compound: "CC(C)(C)c1ccc(Oc2cc(-c3ccc(OC(F)(F)F)cc3)ccc2OC(F)(F)C(=O)O)cc1 [Compound 120]"
  measured_on: "recombinant human PAI-1 (Homo sapiens)"
  units_symbol: "%"
  inhibition at 10 µM: 87
- compound: "CC(C)(Nc1cc(-c2ccc(OC(F)(F)F)cc2)ccc1OCc1ccc(C(C)(C)C)cc1)C(=O)O [Compound 420]"
  measured_on: "recombinant human PAI-1 (Homo sapiens)"
  units_symbol: "%"
  inhibition at 10 µM: 64

Ask: Quick check: inhibition at 10 µM of CC(C)(C)c1ccc(COc2ccc(OCc3ccc(OC(F)(F)F)cc3)cc2/C=C/C(=O)O)cc1 [Compound 413] ?
Result: 66

Ask: Same for CC(C)(C)c1ccc(CN(C(=O)C(=O)O)c2ccc(-c3cccc(OC(F)(F)F)c3)cc2)cc1 [Compound 200]
Result: 89

====

# measured_on: recombinant human PAI-1 (Homo sapiens, UniProt P05121)
# protocol_text: Test Example 4: Human PAI-1 Inhibitory Activity (amount of PAI-1 bound to plate-coated one-chain tPA, ELISA)
# Format: biochemical
# Design: purchased Molecular Innovations, Inc
# test_context: human PAI-1 bound to tPA; Compound Concentration 3µM; read-out: Inhibition Rate of PAI-1 Activity (%)
outcome_measure: inhibition at 3 µM (%)
Please give a number only; it is taken to be in %.

- molecule: "CC(C)(C)c1ccc(COc2ccc(-c3ccc(OC(F)(F)F)cc3)cc2OCC(=O)O)cc1 [Compound 105]"
  inhibition at 3 µM [%]: 33

Ask: What measured inhibition at 3 µM goes with CCN(CC)c1ccc(N(Cc2ccc(C(C)(C)C)cc2)C(=O)C(=O)O)c(-c2ccc(OC(F)(F)F)cc2)c1 [Compound 208] ?
Result: 36

Ask: Similarly, CC(C)(C)c1ccc(Oc2cc(-c3ccc(OC(F)(F)F)cc3)ccc2OCC(=O)O)cc1 [Compound 112] ?
Result: 36

Ask: Next molecule up: CC(C)(C)c1ccc(Oc2ccc(Oc3ccc(OC(F)(F)F)cc3)cc2CCC(=O)O)cc1 [Compound 100]
Result: 79

Ask: For O=C(O)CCc1cc(-c2ccc(OC(F)(F)F)cc2)ccc1OCCCCc1ccccc1 [Compound 102] then?
Result: 83

====

Readings of inhibition at 0.3 µM for the listed compounds
# measured_on: recombinant human PAI-1 (Homo sapiens)
# protocol_text: Test Example 4: Human PAI-1 Inhibitory Activity (amount of PAI-1 bound to plate-coated one-chain tPA, ELISA)
# Assay type: biochemical
# Parameters: purchased Molecular Innovations, Inc
# test_context: human PAI-1 bound to tPA; Compound Concentration 0.3µM; read-out: Inhibition Rate of PAI-1 Activity (%)
The answer is to be given in %; state only the numeric part.

Worked examples, 3 compounds total:
- compound: "Cc1ccc(N(Cc2ccc(C(C)(C)C)cc2)C(=O)C(=O)O)cc1-c1ccc(OC(F)(F)F)cc1"
  inhibition at 0.3 µM [%]: 9
- compound: "CC(C)(C)c1ccc(CN(C(=O)C(=O)O)c2cccc(-c3ccc(OC(F)(F)F)cc3)c2)cc1"
  inhibition at 0.3 µM [%]: 1
- compound: "CC(C)(C)c1ccc(COc2ccc(-c3ccc(OC(F)(F)F)cc3)cc2OCC(=O)O)cc1"
  inhibition at 0.3 µM [%]: 7

Ask: # get_value(readout='inhibition at 0.3 µM', item= CCCOc1ccc(N(Cc2ccc(C(C)(C)C)cc2)C(=O)C(=O)O)cc1-c1ccc(OC(F)(F)F)cc1 )
Result: 10

Ask: One more compound: CCCOc1ccc(N(Cc2ccc(C(C)(C)C)cc2)C(=O)C(=O)O)c(-c2ccc(OC(F)(F)F)cc2)c1
Result: 6

====

# measured_on: recombinant human PAI-1 (Homo sapiens)
# protocol_text: Test Example 2: Human PAI-1 Inhibitory Activity (pH 7.4 HEPES buffer, 10 minutes incubation with two-chain tPA)
# Type: biochemical
# Set-up: purchased Molecular Innovations, Inc
# test_context: read-out: Inhibition Rate of PAI-1 Activity (%)
The entries below are paired with their reported inhibition at 3 µM.
Note: unit % is implicit; provide only the numeric part.

- molecule: "CCCCC(Oc1ccc(-c2ccc(OC(F)(F)F)cc2)cc1OCc1ccc(C(C)(C)C)cc1)C(=O)O (stereo not shown)"
  units_symbol: "%"
  inhibition at 3 µM: 96

Ask: Name the reported inhibition at 3 µM value associated with the molecule CN(C(=O)c1ccc(OC(F)(F)F)cc1)c1ccc(OCc2ccc(C(C)(C)C)cc2)c(CCC(=O)O)c1
Result: 54

Ask: And the next one, CCCCCCCOc1ccc(-c2ccc(OC(F)(F)F)cc2)cc1N(CCCCc1ccccc1)C(=O)C(=O)O ?
Result: 90

====

# measured_on: recombinant human PAI-1 (Homo sapiens)
# protocol_text: Test Example 2: Human PAI-1 Inhibitory Activity (pH 7.4 HEPES buffer, 10 minutes incubation with two-chain tPA)
# Format: biochemical
# Set-up: purchased Molecular Innovations, Inc
# test_context: read-out: Inhibition Rate of PAI-1 Activity (%)
# key: entry, value: inhibition at 0.1 µM
Write down the numeric answer in % and omit the unit.

- record_smiles: "CC(C)(C)c1ccc(Oc2cc(-c3ccc(C(C)(C)C)cc3)ccc2/C=C/C(=O)O)cc1"
  units_symbol: "%"
  observed_measurement: 8
- record_smiles: "CC(C)(C)c1ccc(Oc2ccc(-c3ccc(OC(F)(F)F)cc3)cc2CCC(=O)O)cc1"
  units_symbol: "%"
  observed_measurement: 5
- record_smiles: "CC(C)(C)c1cccc(Oc2ccc(-c3ccc(OC(F)(F)F)cc3)cc2/C=C/C(=O)O)c1"
  units_symbol: "%"
  observed_measurement: 0
- record_smiles: "CCCCc1ccc(Oc2cc(-c3ccc(OC(F)(F)F)cc3)ccc2OCC(=O)O)cc1"
  units_symbol: "%"
  observed_measurement: 19
- record_smiles: "CC(C)(C)c1ccc(COc2cc(-c3ccc(OC(F)(F)F)cc3)ccc2OCC(=O)O)cc1"
  units_symbol: "%"
  observed_measurement: 3

Ask: Query the reported inhibition at 0.1 µM for recombinant human PAI-1 (Homo sapiens); item: CCCCCCCCCOc1cc(N(Cc2ccc(C(C)(C)C)cc2)C(=O)C(=O)O)ccc1-c1ccc(OC(F)(F)F)cc1
Result: 75

Ask: Same lookup for CC(C)(C)c1ccc(Oc2cccc(-c3ccc(OC(F)(F)F)cc3)c2OCC(=O)O)cc1 , please.
Result: 0

Ask: Another molecule to check: CCCCOc1ccc(-c2ccc(OCC(=O)O)c(Oc3ccc(C(C)(C)C)cc3)c2)cc1
Result: 1
